We begin with a simple list: items and their reported D50.
TEST_NAME: Particle size analysis (granulometry) by laser dispersion
Type: physicochemical
PROTOCOL_CONDITIONS: dispersing fluid silicone oil
Your answer is read as μm, so omit the unit and give the number.

# count of solved cases: 3
COC1=C(OC)C(=O)C(C/C=C(\C)CC/C=C(\C)CC/C=C(\C)CC/C=C(\C)CC/C=C(\C)CC/C=C(\C)CC/C=C(\C)CC/C=C(\C)CC/C=C(\C)CCC=C(C)C)=C(C)C1=O.COC1=C(OC)C(=O)C(C/C=C(\C)CC/C=C(\C)CC/C=C(\C)CC/C=C(\C)CC/C=C(\C)CC/C=C(\C)CC/C=C(\C)CC/C=C(\C)CC/C=C(\C)CCC=C(C)C)=C(C)C1=O.Cc1cc(O)cc(O)c1.Cc1cc(O)cc(O)c1.Cc1cc(O)cc(O)c1	23.5
COC1=C(OC)C(=O)C(C/C=C(\C)CC/C=C(\C)CC/C=C(\C)CC/C=C(\C)CC/C=C(\C)CC/C=C(\C)CC/C=C(\C)CC/C=C(\C)CC/C=C(\C)CCC=C(C)C)=C(C)C1=O.COC1=C(OC)C(=O)C(C/C=C(\C)CC/C=C(\C)CC/C=C(\C)CC/C=C(\C)CC/C=C(\C)CC/C=C(\C)CC/C=C(\C)CC/C=C(\C)CC/C=C(\C)CCC=C(C)C)=C(C)C1=O.Oc1ccc(O)cc1 [Compound P57-VI, Ubiquinone:hydroquinone (2:1)]	17.0
COC1=C(OC)C(=O)C(C/C=C(\C)CC/C=C(\C)CC/C=C(\C)CC/C=C(\C)CC/C=C(\C)CC/C=C(\C)CC/C=C(\C)CC/C=C(\C)CC/C=C(\C)CCC=C(C)C)=C(C)C1=O.COC1=C(OC)C(=O)C(C/C=C(\C)CC/C=C(\C)CC/C=C(\C)CC/C=C(\C)CC/C=C(\C)CC/C=C(\C)CC/C=C(\C)CC/C=C(\C)CC/C=C(\C)CCC=C(C)C)=C(C)C1=O.O.Oc1cc(O)cc(O)c1	22.2

Here is another compound to look at.
Prompt: For the compound COC1=C(OC)C(=O)C(C/C=C(\C)CC/C=C(\C)CC/C=C(\C)CC/C=C(\C)CC/C=C(\C)CC/C=C(\C)CC/C=C(\C)CC/C=C(\C)CC/C=C(\C)CCC=C(C)C)=C(C)C1=O , report D50.
Completion: 28.4

---

TEST_NAME: Particle size analysis (granulometry) by laser dispersion
Assay type: physicochemical
PROTOCOL_CONDITIONS: dispersing fluid silicone oil
ENDPOINT_NAME: Mode particle size (μm)
Give the value in μm but do not write μm after it.

Prompt: Fill in reported Mode particle size for this entry: COC1=C(OC)C(=O)C(C/C=C(\C)CC/C=C(\C)CC/C=C(\C)CC/C=C(\C)CC/C=C(\C)CC/C=C(\C)CC/C=C(\C)CC/C=C(\C)CC/C=C(\C)CCC=C(C)C)=C(C)C1=O [Compound P57, ubiquinone]
Completion: 38.0

---

TEST_NAME: Dissolution rate of ubiquinone vs cocrystals in FaSSIF-v2 medium (small-scale dissolution assay)
Assay type: physicochemical
PROTOCOL_CONDITIONS: tablet 8 mm, exposed surface 0.5 cm^2, FaSSIF-v2 medium pH 6.50, 25° C.; Noyes-Whitney fit
Procedure: 1. Dissolution Rate Experiments • Tablet production: tablets of 8 mm diameter were made using a manual hydraulic tablet press (Applied Measurements Ltd, UK) up to a compression weight of 70 Kg. […] Spectra were recorded every 30 seconds for 1 hour through Sirius D-PAS spectrometer, with a bifurcated optic fibre dip probe (Hellma Analytics). […] Dissolution rates of the cocrystals were determined by monitoring the dissolution profile of the different coformers. […]
Collected Dissolution rate values appear next to each entry.
Express your answer in µg/min, writing the number without its unit.

Solved entries (count: 3):
COC1=C(OC)C(=O)C(C/C=C(\C)CC/C=C(\C)CC/C=C(\C)CC/C=C(\C)CC/C=C(\C)CC/C=C(\C)CC/C=C(\C)CC/C=C(\C)CC/C=C(\C)CCC=C(C)C)=C(C)C1=O.COC1=C(OC)C(=O)C(C/C=C(\C)CC/C=C(\C)CC/C=C(\C)CC/C=C(\C)CC/C=C(\C)CC/C=C(\C)CC/C=C(\C)CC/C=C(\C)CC/C=C(\C)CCC=C(C)C)=C(C)C1=O.O.Oc1cc(O)cc(O)c1	3.5
COC1=C(OC)C(=O)C(C/C=C(\C)CC/C=C(\C)CC/C=C(\C)CC/C=C(\C)CC/C=C(\C)CC/C=C(\C)CC/C=C(\C)CC/C=C(\C)CC/C=C(\C)CCC=C(C)C)=C(C)C1=O.O=C(O)c1ccc(O)cc1	56
COC1=C(OC)C(=O)C(C/C=C(\C)CC/C=C(\C)CC/C=C(\C)CC/C=C(\C)CC/C=C(\C)CC/C=C(\C)CC/C=C(\C)CC/C=C(\C)CC/C=C(\C)CCC=C(C)C)=C(C)C1=O.COC1=C(OC)C(=O)C(C/C=C(\C)CC/C=C(\C)CC/C=C(\C)CC/C=C(\C)CC/C=C(\C)CC/C=C(\C)CC/C=C(\C)CC/C=C(\C)CC/C=C(\C)CCC=C(C)C)=C(C)C1=O.Cc1cc(O)cc(O)c1.Cc1cc(O)cc(O)c1.Cc1cc(O)cc(O)c1	106

Prompt: Return the recorded Dissolution rate value; entry: COC1=C(OC)C(=O)C(C/C=C(\C)CC/C=C(\C)CC/C=C(\C)CC/C=C(\C)CC/C=C(\C)CC/C=C(\C)CC/C=C(\C)CC/C=C(\C)CC/C=C(\C)CCC=C(C)C)=C(C)C1=O
Completion: 0.0012

---

TEST_NAME: Particle size analysis (granulometry) by laser dispersion
Assay type: physicochemical
PROTOCOL_CONDITIONS: dispersing fluid silicone oil
Property: Mean particle size; scope: individual molecules
Report only the number, with the unit μm understood.

COC1=C(OC)C(=O)C(C/C=C(\C)CC/C=C(\C)CC/C=C(\C)CC/C=C(\C)CC/C=C(\C)CC/C=C(\C)CC/C=C(\C)CC/C=C(\C)CC/C=C(\C)CCC=C(C)C)=C(C)C1=O	26.0
COC1=C(OC)C(=O)C(C/C=C(\C)CC/C=C(\C)CC/C=C(\C)CC/C=C(\C)CC/C=C(\C)CC/C=C(\C)CC/C=C(\C)CC/C=C(\C)CC/C=C(\C)CCC=C(C)C)=C(C)C1=O.COC1=C(OC)C(=O)C(C/C=C(\C)CC/C=C(\C)CC/C=C(\C)CC/C=C(\C)CC/C=C(\C)CC/C=C(\C)CC/C=C(\C)CC/C=C(\C)CC/C=C(\C)CCC=C(C)C)=C(C)C1=O.Cc1cc(O)cc(O)c1.Cc1cc(O)cc(O)c1.Cc1cc(O)cc(O)c1	20.9
COC1=C(OC)C(=O)C(C/C=C(\C)CC/C=C(\C)CC/C=C(\C)CC/C=C(\C)CC/C=C(\C)CC/C=C(\C)CC/C=C(\C)CC/C=C(\C)CC/C=C(\C)CCC=C(C)C)=C(C)C1=O.COC1=C(OC)C(=O)C(C/C=C(\C)CC/C=C(\C)CC/C=C(\C)CC/C=C(\C)CC/C=C(\C)CC/C=C(\C)CC/C=C(\C)CC/C=C(\C)CC/C=C(\C)CCC=C(C)C)=C(C)C1=O.Oc1ccc(O)cc1 [Compound P57-VI, Ubiquinone:hydroquinone (2:1)]	17.2
COC1=C(OC)C(=O)C(C/C=C(\C)CC/C=C(\C)CC/C=C(\C)CC/C=C(\C)CC/C=C(\C)CC/C=C(\C)CC/C=C(\C)CC/C=C(\C)CC/C=C(\C)CCC=C(C)C)=C(C)C1=O.O=C(O)c1ccc(O)cc1	19.0

Prompt: Input COC1=C(OC)C(=O)C(C/C=C(\C)CC/C=C(\C)CC/C=C(\C)CC/C=C(\C)CC/C=C(\C)CC/C=C(\C)CC/C=C(\C)CC/C=C(\C)CC/C=C(\C)CCC=C(C)C)=C(C)C1=O.COC1=C(OC)C(=O)C(C/C=C(\C)CC/C=C(\C)CC/C=C(\C)CC/C=C(\C)CC/C=C(\C)CC/C=C(\C)CC/C=C(\C)CC/C=C(\C)CC/C=C(\C)CCC=C(C)C)=C(C)C1=O.O.Oc1cc(O)cc(O)c1 , output reported Mean particle size.
Completion: 22.0

---

A collection of molecules and their measured D90
TEST_NAME: Particle size analysis (granulometry) by laser dispersion
Format: physicochemical
PROTOCOL_CONDITIONS: dispersing fluid silicone oil
Field format: number, assumed μm, no unit text.

Example molecules with recorded D90:
COC1=C(OC)C(=O)C(C/C=C(\C)CC/C=C(\C)CC/C=C(\C)CC/C=C(\C)CC/C=C(\C)CC/C=C(\C)CC/C=C(\C)CC/C=C(\C)CC/C=C(\C)CCC=C(C)C)=C(C)C1=O.COC1=C(OC)C(=O)C(C/C=C(\C)CC/C=C(\C)CC/C=C(\C)CC/C=C(\C)CC/C=C(\C)CC/C=C(\C)CC/C=C(\C)CC/C=C(\C)CC/C=C(\C)CCC=C(C)C)=C(C)C1=O.O.Oc1cc(O)cc(O)c1	34.0
COC1=C(OC)C(=O)C(C/C=C(\C)CC/C=C(\C)CC/C=C(\C)CC/C=C(\C)CC/C=C(\C)CC/C=C(\C)CC/C=C(\C)CC/C=C(\C)CC/C=C(\C)CCC=C(C)C)=C(C)C1=O	41.7
COC1=C(OC)C(=O)C(C/C=C(\C)CC/C=C(\C)CC/C=C(\C)CC/C=C(\C)CC/C=C(\C)CC/C=C(\C)CC/C=C(\C)CC/C=C(\C)CC/C=C(\C)CCC=C(C)C)=C(C)C1=O.COC1=C(OC)C(=O)C(C/C=C(\C)CC/C=C(\C)CC/C=C(\C)CC/C=C(\C)CC/C=C(\C)CC/C=C(\C)CC/C=C(\C)CC/C=C(\C)CC/C=C(\C)CCC=C(C)C)=C(C)C1=O.Cc1cc(O)cc(O)c1.Cc1cc(O)cc(O)c1.Cc1cc(O)cc(O)c1	35.5
COC1=C(OC)C(=O)C(C/C=C(\C)CC/C=C(\C)CC/C=C(\C)CC/C=C(\C)CC/C=C(\C)CC/C=C(\C)CC/C=C(\C)CC/C=C(\C)CC/C=C(\C)CCC=C(C)C)=C(C)C1=O.O=C(O)c1ccc(O)cc1	36.1

Prompt: # return recorded D90 for entry COC1=C(OC)C(=O)C(C/C=C(\C)CC/C=C(\C)CC/C=C(\C)CC/C=C(\C)CC/C=C(\C)CC/C=C(\C)CC/C=C(\C)CC/C=C(\C)CC/C=C(\C)CCC=C(C)C)=C(C)C1=O.COC1=C(OC)C(=O)C(C/C=C(\C)CC/C=C(\C)CC/C=C(\C)CC/C=C(\C)CC/C=C(\C)CC/C=C(\C)CC/C=C(\C)CC/C=C(\C)CC/C=C(\C)CCC=C(C)C)=C(C)C1=O.Oc1ccc(O)cc1 [Compound P57-VI, Ubiquinone:hydroquinone (2:1)]
Completion: 34.6

From: patent US11952334B2
